Just for reference, PubChem BioAssay AID1159580 is where these values come from.

procedure_details: chemical genetic growth profiling, strain panel (AID 1159580);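 further: tested at 20 µM; growth read once vehicle control cultures reached saturation at 30 °C; 1 = growth at the plate median or of vehicle wells; lower values mean less growth of the strain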
cond: S. cerevisiae deletion strains, growth OD, locus YMR219W, strain ESC1, stronger effect = lower value
Out of some 5,500 compounds screened, about 2,000 (36%) were called active. Another 18% or so got no clear call; they are omitted. The list shows a part of the results.
recorded_endpoint: normalized growth
The answer should be a number; do not append a unit.

Examples with their reported normalized growth follow.
Cc1cccc(Cn2c(C)c(C)c(S(=O)(=O)c3ccccc3)c2N)c1C : 1.01
CN(C)c1ccc(C(=O)NN)cc1 : 1.01
Clc1cccc(Cl)c1CSC1=NCCCN1C1CCCCC1 : 0.994
Cc1cccc(C)c1NC(=O)C(C)Oc1ccc(Cl)cc1Cl (stereo not given) : 1.01
CCCS(=O)(=O)c1c(C)c(C)n(Cc2ccccc2)c1N : 1
COc1ccc(NC(=O)c2cc(C(F)(F)F)cc(C(F)(F)F)c2)cn1 : 0.949
COc1cc(C(F)(F)F)cc(C(F)(F)F)c1C(=O)Nc1cc(C(F)(F)F)cc(C(F)(F)F)c1 : 1.01
COc1ccc(C2=C(C(C)=O)C(C)=NC(=S)C2C#N)cc1 (stereo not given) : 0.998
Cc1ccc(OS(=O)(=O)c2ccc(C#N)cc2)c(Br)c1 : 0.985
COc1ccc(OC)c(S(=O)(=O)Nc2ccc(C#N)cc2)c1 : 1

Form: compound = `O=S(=O)(Nc1cccc2cccnc12)c1cc(Cl)c(Cl)cc1Cl` ; normalized growth = 0.863

// normalized growth lookup, compound = `CC1=C(OS(=O)(=O)c2cc(C)c(Cl)cc2Cl)C(=O)CC1` , result: 0.985

Recorded normalized growth (compound `CCOC(=O)C1CCN(C(=S)Nc2ccccc2C(F)(F)F)CC1` ): 1

So, `CCOC(=O)COc1nc(-c2cccs2)cc(C(F)(F)F)c1C#N` ? Its normalized growth was 0.988

---

procedure_details: chemical genetic growth profiling, strain panel (AID 1159580);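 further: tested at 20 µM; growth read once vehicle control cultures reached saturation at 30 °C; 1 = growth at the plate median or of vehicle wells; lower values mean less growth of the strain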
cond: S. cerevisiae deletion strains, growth OD, locus YNL153C, strain GIM3, stronger effect = lower value
Hit rate of the full screen: of about 5,500 compounds, about 2,000 (36%) were called active. Inconclusive results (about 18%) are left out. This is one part of the list.
recorded_endpoint: normalized growth
Reply with just the number.

Below, 5 compounds whose answers are already recorded.
Cc1cccc(C)c1NC(=O)C(C)Oc1ccc(Cl)cc1Cl (stereo unspecified) : 1.02
COc1ccc2c(c1)OCc1c-2oc2cc(OC)ccc12 : 0.968
c1ccc(N=Nc2ccc(Nc3ccccc3)cc2)cc1 : 0.914
CN1CCCN=C1COC(=O)C(O)(c1ccccc1)C1CCCCC1 (stereo unspecified) : 1
O=C(Oc1ccc(C(F)(F)F)cc1[N+](=O)[O-])c1c(F)cccc1F : 0.227

compound CCOC(=O)C(Cc1ccc(O)cc1)NC(C)=O (stereo unspecified) , normalized growth observed: 1.01

normalized growth reading for `Cc1cccc(Cn2c(C)c(C)c(S(=O)(=O)c3ccccc3)c2N)c1C` : 1.04

Consider C=C(C)C1CNC(C(=O)O)C1CC(=O)O (stereo unspecified) . Its measured normalized growth is 1.02

Looking up `CCCS(=O)(=O)c1c(C)c(C)n(Cc2ccccc2)c1N` , I see its normalized growth listed as 1

Value of normalized growth reported for the compound `N#CCOc1ccc(Cl)cc1Cl` is 0.997

// sample `C[C@H]1O[C@@H](n2cc(F)c(=O)[nH]c2=O)[C@H](O)[C@@H]1O` , its normalized growth was 1.02

normalized growth reading for C[C@H]1OC(n2cc(F)c(=O)[nH]c2=O)C(O)[C@@H]1O (stereo partly specified) : 1.02

Lab book: normalized growth of `COc1cc(C(F)(F)F)cc(C(F)(F)F)c1C(=O)Nc1cc(C(F)(F)F)cc(C(F)(F)F)c1` noted as 1.01

For reference, reported normalized growth for CCOC(=O)C12CC1/C(=N\O)c1ccccc1O2 (stereo unspecified) stands at 1.02

The recorded normalized growth for `O=C(Nc1cccc(C(=O)Nc2ccc(S(=O)(=O)O)c3cc(S(=O)(=O)O)cc(S(=O)(=O)O)c23)c1)Nc1cccc(C(=O)Nc2ccc(S(=O)(=O)O)c3cc(S(=O)(=O)O)cc(S(=O)(=O)O)c23)c1` is 0.977

compound `CC1(C)OC(=O)NC1=O` , normalized growth observed: 0.989

Sure, the documented normalized growth for C[C@H]1CC2C([C@@H](O)C[C@@]3(C)C2CC[C@]3(O)C(=O)CO)[C@@]2(C)C=CC(=O)C=C12 (stereo partly specified) is 1.01

normalized growth reported for this compound `O=C1c2cccc3c([N+](=O)[O-])ccc(c23)C(=O)N1Cc1ccco1` : 0.899
